tested.on: UniProt P47936
Sequence (P47936 whole entry, the tested form may be a part): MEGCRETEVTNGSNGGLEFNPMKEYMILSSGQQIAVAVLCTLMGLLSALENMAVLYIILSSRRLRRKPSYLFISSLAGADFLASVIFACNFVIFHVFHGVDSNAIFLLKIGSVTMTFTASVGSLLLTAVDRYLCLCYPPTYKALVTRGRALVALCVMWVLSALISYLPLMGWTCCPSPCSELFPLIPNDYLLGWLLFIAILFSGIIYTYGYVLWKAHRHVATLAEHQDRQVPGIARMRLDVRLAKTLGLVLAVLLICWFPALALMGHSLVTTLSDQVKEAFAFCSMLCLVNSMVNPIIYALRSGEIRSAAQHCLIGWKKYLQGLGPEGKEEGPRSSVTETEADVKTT
assay.procedure: Ratio of EC50 for C-terminally prolink-tagged mouse CB2 receptor expressed in CHOK1 cells harboring beta-galactosidase enzyme fused beta-arrestin assessed as increase in beta-arrestin recruitment to EC50 for mouse CB2 receptor expressed in HEK293 cells assessed as inhibition of forskolin-mediated cAMP accumulation
Format: functional, cell-based
Ratio EC50 values by entry

compound | Ratio EC50
O=C(c1cn(CCCCCF)c2ccccc12)C12CC3CC(CC(C3)C1)C2 | 0.2
CN1CCCCC1Cn1cc(C(=O)C23CC4CC(CC(C4)C2)C3)c2ccccc21 (stereo unspecified) | 0.079
CCCCCCC(C)(C)c1cc(OC)c([C@@H]2C=C(CO)[C@H]3C[C@@H]2C3(C)C)c(OC)c1 | 39.8
CCCCCc1cc(O)c2c(c1)OC(C)(C)[C@@H]1CCC(C)=C[C@@H]21 | 33.1
CCCn1c(C)c(C(=O)c2cccc3ccccc23)c2ccccc21 | 28.1
CCCCCn1cc(C(=O)C2C(C)(C)C2(C)C)c2ccccc21 | 0.0015
